Tested on: SN12C
protocol.description: Cytotoxicity against human SN12C cells
Format: functional
stated.conditions: read-out: Log TGI (converted)
endpoint.label: TGI (µM)
Give bare numbers, in µM.

- molecule: "CC(=O)O[C@H]1C[C@H]2[C@@](C)(CC[C@H]3C(C)(C)CCC[C@@]32CO)[C@@H]2CC=C(C(C)=O)[C@H](C=O)[C@@]12C"
  measured.target: "SN12C"
  units.of.measure: "µM"
  TGI: 2.45

For each of the items listed, what is its TGI?
1. CC(=O)C1=CC[C@H]2[C@]3(C)CC[C@H]4C(C)(C)CCC[C@]4(C(=O)O)[C@H]3CC(=O)[C@]2(C)[C@H]1C=O
2. CC1OC(=O)[C@H]2[C@H]1[C@@H](O)C[C@H]1[C@]3(C)CC[C@H]4C(C)(C)CCC[C@]4(C)[C@H]3C[C@@H](O)[C@]21C (some centres undefined)
3. CC(=O)O[C@@H]1C[C@H]2[C@]3(C)CC[C@H]4C(C)(C)CCC[C@]4(C)[C@H]3C[C@H](O)[C@]2(C)[C@@H](C=O)[C@@H]1C(C)=O [SCALARHERBACIN A]

Return:
1: 3.16; 2: 46.8; 3: 2.75

====

Tested on: A549
protocol.description: Cytotoxicity against human A549 cells
Format: functional
stated.conditions: read-out: Log LC50 (the source's name) (converted)
Kindly supply the reported CC50 values for the records listed here.
Give bare numbers, in µM.

- molecule: "CC(=O)C1=CC[C@H]2[C@]3(C)CC[C@H]4C(C)(C)CCC[C@]4(C(=O)O)[C@H]3CC(=O)[C@]2(C)[C@H]1C=O"
  CC50 [µM]: 74.1
- molecule: "CC(=O)O[C@H]1C[C@H]2[C@@](C)(CC[C@H]3C(C)(C)CCC[C@@]32CO)[C@@H]2CC=C(C(C)=O)[C@H](C=O)[C@@]12C"
  CC50 [µM]: 4.68
- molecule: "CC(=O)O[C@@H]1C[C@H]2[C@]3(C)CC[C@H]4C(C)(C)CCC[C@]4(C)[C@H]3C[C@H](O)[C@]2(C)[C@@H](C=O)[C@@H]1C(C)=O [SCALARHERBACIN A]"
  CC50 [µM]: 6.61

The value of CC50 measured for the molecule CC1OC(=O)[C@H]2[C@H]1[C@@H](O)C[C@H]1[C@]3(C)CC[C@H]4C(C)(C)CCC[C@]4(C)[C@H]3C[C@@H](O)[C@]21C (some centres undefined) turned out to be 89.1

====

Test system: SR
protocol.description: Cytotoxicity against human SR cells
Assay type: functional
stated.conditions: read-out: Log TGI (converted)
endpoint.label: TGI (nM)
One number for each entry, in nM.

The examples below pair each entry with its known result.
- compound: "CC(=O)O[C@@H]1C[C@H]2[C@]3(C)CC[C@H]4C(C)(C)CCC[C@]4(C)[C@H]3C[C@H](O)[C@]2(C)[C@@H](C=O)[C@@H]1C(C)=O"
  TGI / nM: 1150
- compound: "CC(=O)O[C@H]1C[C@H]2[C@@](C)(CC[C@H]3C(C)(C)CCC[C@@]32CO)[C@@H]2CC=C(C(C)=O)[C@H](C=O)[C@@]12C"
  TGI / nM: 759
- compound: "CC1OC(=O)[C@H]2[C@H]1[C@@H](O)C[C@H]1[C@]3(C)CC[C@H]4C(C)(C)CCC[C@]4(C)[C@H]3C[C@@H](O)[C@]21C (some centres undefined)"
  TGI / nM: 35500

Result for CC(=O)C1=CC[C@H]2[C@]3(C)CC[C@H]4C(C)(C)CCC[C@]4(C(=O)O)[C@H]3CC(=O)[C@]2(C)[C@H]1C=O , tested on SR, TGI: 1860

FYI, the data here is from ChEMBL document CHEMBL1141332.
